Tested on: cultured murine melanocytes (melan-a)
Experiment: Melanin assay in cultured murine melanocytes (melan-a)
Assay type: cell-based
Details: Mus musculus; melanin synthesis, melan-a cells; read-out: IC50 range
Protocol: The Spectrum Collection library consisting of 2000 drug compounds or natural products was screened to identify novel pigmentation inhibitors or stimulators in cultured murine melanocytes (melan-a). Compounds were dissolved in dimethylsulfoxide (DMSO) to a final concentration of 10 mM. […] A 180-μl aliquot of the resulting solution was measured for absorbance at 490 nm. […] A 180-μl aliquot of the resulting solution was measured for absorbance at 490 nm. […]
Where a name gives a salt, the structure may show the parent alone.
measurement_type: IC50

Q: Could you share which IC50 value was measured for CNCCCC1c2ccccc2C=Cc2ccccc21 [compound 8, Protriptyline hydrochloride] ?
Result: 5000 to 10000 nM

Q: Try this compound next: CN(C)CCC=C1c2ccccc2CCc2ccccc21 [compound 2, Amitriptyline hydrochloride]
Result: < 1000 nM

Q: Try this compound next: CC(CN(C)C)CN1c2ccccc2CCc2ccccc21 (stereo not drawn) [compound 3, Trimpramine maleate]
Result: 1000 to 2500 nM

Q: Try this compound next: CNCCCN1c2ccccc2CCc2ccccc21 [compound 6, Despramine hydrochloride]
Result: 2500 to 5000 nM

Q: Try this compound next: "CNCCC=C1c2ccccc2CCc2ccccc21"
Result: 1000 to 2500 nM

Q: Try this compound next: CN(C)CCCN1c2ccccc2CCc2ccccc21 [compound 5, Imipramine hydrochloride]
Result: < 1000 nM

----------
// values below are reported inhibition at 1 µM
Test system: cultured murine melanocytes (melan-a)
Assay: Melanin assay in cultured murine melanocytes (melan-a)
Type: cell-based
Settings: Mus musculus; melanin formation, melan-a cells, 1 μM, 72 hours of incubation
Structures can show the parent of a compound that is named as a salt.
Express the result in % but write the number alone.

Examples with answers:
CNCCC=C1c2ccccc2CCc2ccccc21 = 39
CN(C)CCC=C1c2ccccc2CCc2ccccc21 [compound 2, Amitriptyline hydrochloride] = 51
CN(C)CCCN1c2ccccc2CCc2ccccc21 [compound 5, Imipramine hydrochloride] = 34

Now let's try a different one.
Q: Could you share which inhibition at 1 µM value was measured for CC(CN(C)C)CN1c2ccccc2CCc2ccccc21 (stereo not shown) [compound 3, Trimpramine maleate] ?
Result: 28

----------
// values below are reported inhibition at 5 µM
Tested on: cultured murine melanocytes (melan-a)
Experiment: Melanin assay in cultured murine melanocytes (melan-a)
Type: cell-based
Details: Mus musculus; melanin formation, melan-a cells, 5 μM, 72 hours of incubation
Structures can show the parent of a compound that is named as a salt.
Express the result in % but write the number alone.

Examples with answers:
CC(CN(C)C)CN1c2ccccc2CCc2ccccc21 (stereo not shown) [compound 3, Trimpramine maleate] = 48
CN(C)CCC=C1c2ccccc2CCc2ccccc21 [compound 2, Amitriptyline hydrochloride] = 65
CN(C)CCCN1c2ccccc2CCc2ccccc21 [compound 5, Imipramine hydrochloride] = 60

Q: Could you share which inhibition at 5 µM value was measured for CNCCC=C1c2ccccc2CCc2ccccc21 [compound 1, Nortriptyline] ?
Result: 58
